The origin of these recorded values is patent US20230257396A1.

assay_system: kinases (Homo sapiens, UniProt P00533, L858R)
Construct: purchased Eurofins/DiscoveRx; host or cells: E. coli BL21-derived host (T7 phage display) for most kinases; HEK-293 for the rest
protocol: KINOMEscan kinase binding assay (Eurofins/DiscoveRx), % Ctrl
conditions: 1 μM; EGFR(L858R)
Catalogue of % Ctrl, EGFR(L858R) readings, one per entry.
API: value field is a number in % Ctrl; no unit string.

>>> assay_value("Cc1cc2c([nH]1)/C=C1\\C(=O)Nc3ccc(nc31)-c1ccccc1OCCCNC2=O [Ex.22]")
67
>>> assay_value("Cc1cc2c([nH]1)/C=C1\\C(=O)Nc3cc(Cl)c(cc31)OCCO[C@@H](C(=O)N[C@@H]1CCNC1)CN(C)C2=O [Ex. 136]")
90
>>> assay_value("Cc1cc2c([nH]1)/C=C1\\C(=O)Nc3ccc(cc31)-c1ccnn1CCNCCNC2=O [Ex. 43]")
97

Reported kinases (Homo sapiens, UniProt P00533, L858R) % Ctrl, EGFR(L858R) for item Cc1cc2c([nH]1)/C=C1\C(=O)Nc3ccc(cc31)OCCOCCN(C)C2=O [Ex.91] was 100

Reported kinases (Homo sapiens, UniProt P00533, L858R) % Ctrl, EGFR(L858R) for item Cc1cc2c([nH]1)/C=C1\C(=O)Nc3ccc(cc31)CN(C)C(=O)COCCNC2=O [Ex.111] was 78
